// provenance: patent US20110046147A1

tested on: CaCo-2 cells; assay: CaCo2 transport assay; format: in vitro ADME; conditions: 50 μM in donor compartment
measured endpoint: Permeability (class in words)

Oc1cccc(-c2ccc(-c3cccc(O)c3)cc2)c1 [Compound 42, [1,1′,4′,1″]Terphenyl-3,3′-diol]	high
Oc1ccc(-c2cnc(-c3cccc(O)c3)s2)cc1	medium-high
Oc1ccc(-c2cc(-c3cccc(O)c3)on2)cc1	medium-high
Oc1ccc(-c2ccc(-c3cccc(O)c3)s2)cc1 [Compound 29, 3-[5-(4-Hydroxyphenyl)-2-thienyl]phenol]	high
Oc1ccc(-c2ccsc2-c2cccc(O)c2)cc1 [Compound 28, 3-[3-(4-Hydroxyphenyl)-2-thienyl]phenol]	high
Oc1ccc(-c2cccc(-c3ccc(O)cc3)c2)cc1 [Compound 41, [1,1′;3′,1″]Terphenyl-4,4″-diol]	high
Oc1ccc(-c2ncc(-c3cccc(O)c3)s2)cc1	high
Cc1cc(O)cc(-c2ccc(-c3ccc(O)cc3)s2)c1	high
Oc1ccc(-c2cc(-c3cccc(O)c3)cs2)cc1 [Compound 32, 3-[5-(4-Hydroxyphenyl)-3-thienyl]phenol]	high

Would you kindly look at the next entry?
Entry "Oc1ccc(-c2cnc(-c3cccc(O)c3)o2)cc1" : reported Permeability (class in words) = ?
medium-high

* * *

assay: In vivo pharmacokinetics (rat), peroral cassette dosing; parameters: species or system Wistar rats; details: 10 mg/kg, plasma
measured endpoint: Cz (last analytically quantifiable concentration) (ng/mL)

Cc1cc(-c2ccc(-c3cccc(O)c3)s2)ccc1O	43.4

A = Oc1cccc(-c2ccc(-c3ccc(O)c(F)c3)s2)c1
B = Oc1cccc(-c2nnc(-c3cccc(O)c3)nn2)c1
C = Oc1ccc(-c2ccc(-c3cccc(O)c3)s2)cc1 [Compound 29, 3-[5-(4-Hydroxyphenyl)-2-thienyl]phenol]
Order each entry by recorded Cz (last analytically quantifiable concentration), climbing from the minimum. Record the ranking as a list of labels in the requested order.
C, A, B
(C: 6.56 ng/mL, A: 25 ng/mL, B: 54 ng/mL)

* * *

biological target: 17β-HSD1 (Homo sapiens, UniProt P14061)
Sequence (P14061 whole entry): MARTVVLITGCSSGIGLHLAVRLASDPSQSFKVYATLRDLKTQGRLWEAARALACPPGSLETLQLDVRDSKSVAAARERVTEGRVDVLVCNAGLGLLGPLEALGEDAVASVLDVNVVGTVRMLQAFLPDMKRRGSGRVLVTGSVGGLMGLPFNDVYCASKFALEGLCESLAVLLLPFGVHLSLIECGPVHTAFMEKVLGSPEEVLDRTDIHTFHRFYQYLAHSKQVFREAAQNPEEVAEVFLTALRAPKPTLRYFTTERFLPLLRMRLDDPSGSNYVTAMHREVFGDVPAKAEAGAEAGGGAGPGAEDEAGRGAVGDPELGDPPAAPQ
measured endpoint: IC50 (nM)

Record excerpt, results attached:
Oc1cccc(-c2nnc(-c3cccc(O)c3)nn2)c1	200
Oc1cccc(-c2csc(-c3cccc(O)c3)n2)c1	410

A = Oc1ccc(-c2cnc(-c3cccc(O)c3)o2)cc1
B = Oc1cccc(-c2ccc(-c3cc(F)c(O)c(F)c3)s2)c1
When A and B are compared, which has the higher number for IC50? When you have decided, please share the label of that item.
A

* * *

test: In vivo pharmacokinetics (rat), peroral cassette dosing; parameters: species or system Wistar rats; conditions: male, Wistar, plasma, po, 10 mg/kg, read-out: t1/2z (half life) (converted)
measured endpoint: half-life (h)

Oc1cccc(-c2nnc(-c3cccc(O)c3)nn2)c1	1.2
Oc1ccc(-c2ccc(-c3cccc(O)c3)s2)cc1 [Compound 29, 3-[5-(4-Hydroxyphenyl)-2-thienyl]phenol]	1.5

* * *

molecular target: 17β-HSD1 (Homo sapiens); construct: In both cases, human placenta served as the enzyme source; from tissue; host or cells: human placenta; test: Inhibition of 17β-HSD1 (estrone to estradiol, radio-HPLC); format: biochemical; details: ratio of IC50 values
measured endpoint: Selectivity IC50 (17β-HSD2)/IC50 (17β-HSD1)

Oc1cccc(-c2ccc(-c3ccccc3)s2)c1	6.9

a = Oc1cccc(-c2cnc(-c3cccc(O)c3)cn2)c1
b = Oc1ccc(-c2cnc(-c3cccc(O)c3)s2)cc1
Sorting ascending by Selectivity IC50 (17β-HSD2)/IC50 (17β-HSD1), which comes first: a or b ? Use the label to indicate which entry you chose.
a
